# Tested on: HLF cells
# Assay Comment: Cellular dose response assay, HLF
# Assay type: cell-based, human
# Test Conditions: with fer-1; Table 4; read-out: IC50 (uM) HLF^b
Give IC50 for every item shown.
Answers are plain numbers, in µM.

- Structure: "CC(C)(COC(=O)CCl)NC(=O)c1cc2ccccc2[nH]1"
  System Under Test: "HLF cells"
  Numeric Readout: 113
- Structure: "COc1ccc2cc(C(=O)NC(C)(C)COC(=O)CCl)[nH]c2c1"
  System Under Test: "HLF cells"
  Numeric Readout: 278

Provide each entry's IC50 from the list below.
1. CC(C)(COC(=O)CCl)NC(=O)c1cc2cc([N+](=O)[O-])ccc2[nH]1
2. CC(C)(COC(=O)CCl)NC(=O)c1cc2ccc(Br)cc2[nH]1

28.7
34.3
